The origin of these recorded values is patent US11351268B2.

The following substances are listed with their measured IC50 values.
# study target: Klotho β (KLB) (Homo sapiens, UniProt Q86Z14)
# Construct: expressed in transfected cells; host or cells: HEK 293T (ATCC), pooled Zeocin-selected cells stably expressing hKLB from pcDNA3.1(+)
# assay protocol: cell-based
# Type: cell-based
# condition details: Table 5, FGF19/FGF21 chimeric peptides
No end group written: not given here.

substance: PLETDSMDPFGLVGPSQGRSPSFEA-NH2 (C-terminus assumed) [Peptide 0430]
IC50 / nM: 15.9
//
substance: PPDVGSMDPFGLVGPSQGRSPSFEA-NH2 (C-terminus assumed) [Peptide 0431]
IC50 / nM: 4.1
//
substance: PPDVGSSDPLSMVTGLEAVRSPSFEA-NH2 (C-terminus assumed) [Peptide 0435]
IC50 / nM: 65.1
//
substance: PLETDSSDPLSMVTGLEAVRSPSYAA-NH2 (C-terminus assumed) [Peptide 0434]
IC50 / nM: 264

* * *

# study target: Klotho β (KLB) (Homo sapiens, UniProt Q86Z14)
# Construct: expressed in transfected cells; host or cells: HEK 293T (ATCC), pooled Zeocin-selected cells stably expressing hKLB from pcDNA3.1(+)
# assay protocol: cell-based
# Format: cell-based
# condition details: FIG. 8A, substitutions at terminal position of FGF19 169-194 peptide
No end group written: not given here.
The following substances are listed with their measured IC50 values.

substance: PLETDSMDPFGLVTGLEAVRSPSFEE-NH2 (C-terminus assumed) [Peptide K194E]
IC50 (nM): 87.9

substance: PLETDSMDPFGLVTGLEAVRSPSFEL-NH2 (C-terminus assumed) [Peptide K194L]
IC50 (nM): 17.3

substance: PLETDSMDPFGLVTGLEAVRSPSFES-NH2 (C-terminus assumed) [Peptide K194S]
IC50 (nM): 22.3

substance: PLETDSMDPFGLVTGLEAVRSPSFEA-NH2 (C-terminus assumed) [FGF19 A25]
IC50 (nM): 10.5

* * *

The following substances are listed with their measured pIC50 values.
# study target: Klotho β (KLB) (Homo sapiens, UniProt Q86Z14)
# Construct: expressed in transfected cells; host or cells: HEK 293T (ATCC), pooled Zeocin-selected cells stably expressing hKLB from pcDNA3.1(+)
# assay protocol: cell-based
# Assay type: cell-based
# condition details: Table 1, alanine scan of FGF21 25mer; antagonism of native FGF21 response
pIC50: −log10 of the molar value. No end group written: not given here.

substance: PPDVGSSDPLSMVGPSQGASPSYAS-NH2 (C-terminus assumed) [Peptide A19, PPDVGSSDPLSMVGPSQGASPSYAS]
pIC50: 6.99
--
substance: PPDVGSSDPLSMVGPSAGRSPSYAS-NH2 (C-terminus assumed) [Peptide A17, PPDVGSSDPLSMVGPSAGRSPSYAS]
pIC50: 6.86
--
substance: PPDVGSSDPLSMVGPAQGRSPSYAS-NH2 (C-terminus assumed) [Peptide A16, PPDVGSSDPLSMVGPAQGRSPSYAS]
pIC50: 6.92
--
substance: PPDVGSSDPLSMVGPSQARSPSYAS-NH2 (C-terminus assumed) [Peptide A18, PPDVGSSDPLSMVGPSQARSPSYAS]
pIC50: 6.86
--
substance: PPDVGSSDPLAMVGPSQGRSPSYAS-NH2 (C-terminus assumed) [Peptide A11, PPDVGSSDPLAMVGPSQGRSPSYAS]
pIC50: 6.99

* * *

# study target: Klotho β (KLB) (Homo sapiens, UniProt Q86Z14)
# Construct: expressed in transfected cells; host or cells: HEK 293T (ATCC), pooled Zeocin-selected cells stably expressing hKLB from pcDNA3.1(+)
# assay protocol: cell-based
# Assay type: cell-based
# condition details: Table 1; native sequence = 100% response; read-out: % max activity
# Experimental: Cells were cultured in 10% Fetal Bovine Serum containing DMEM High glucose GLUTAMAX® at 37 C, 95% humidity, 5% CO2. […] 293 HEK cells expressing hKLB were plated to 90% confluency in 96 well plates coated with poly-D-Lysine. […] The degree of biochemical activation was recorded and analyzed using Origin software by logistic curve fitting. […]
No end group written: not given here.

substance: PPDAGSSDPLSMVGPSQGRSPSYAS-NH2 (C-terminus assumed) [Peptide A4, PPDAGSSDPLSMVGPSQGRSPSYAS]
study target: Klotho β (KLB) (Homo sapiens, UniProt Q86Z14)
measurement units: %
Emax: 63.6

substance: PPDVGSSDPLSMVGPSQGRAPSYAS-NH2 (C-terminus assumed) [Peptide A20, PPDVGSSDPLSMVGPSQGRAPSYAS]
study target: Klotho β (KLB) (Homo sapiens, UniProt Q86Z14)
measurement units: %
Emax: 73.5

substance: PADVGSSDPLSMVGPSQGRSPSYAS-NH2 (C-terminus assumed) [Peptide A2, PADVGSSDPLSMVGPSQGRSPSYAS]
study target: Klotho β (KLB) (Homo sapiens, UniProt Q86Z14)
measurement units: %
Emax: 98.5

* * *

The following substances are listed with their measured IC50 values.
# study target: Klotho β (KLB) (Homo sapiens, UniProt Q86Z14)
# Construct: expressed in transfected cells; host or cells: HEK 293T (ATCC), pooled Zeocin-selected cells stably expressing hKLB from pcDNA3.1(+)
# Sequence (Q86Z14 1-1044): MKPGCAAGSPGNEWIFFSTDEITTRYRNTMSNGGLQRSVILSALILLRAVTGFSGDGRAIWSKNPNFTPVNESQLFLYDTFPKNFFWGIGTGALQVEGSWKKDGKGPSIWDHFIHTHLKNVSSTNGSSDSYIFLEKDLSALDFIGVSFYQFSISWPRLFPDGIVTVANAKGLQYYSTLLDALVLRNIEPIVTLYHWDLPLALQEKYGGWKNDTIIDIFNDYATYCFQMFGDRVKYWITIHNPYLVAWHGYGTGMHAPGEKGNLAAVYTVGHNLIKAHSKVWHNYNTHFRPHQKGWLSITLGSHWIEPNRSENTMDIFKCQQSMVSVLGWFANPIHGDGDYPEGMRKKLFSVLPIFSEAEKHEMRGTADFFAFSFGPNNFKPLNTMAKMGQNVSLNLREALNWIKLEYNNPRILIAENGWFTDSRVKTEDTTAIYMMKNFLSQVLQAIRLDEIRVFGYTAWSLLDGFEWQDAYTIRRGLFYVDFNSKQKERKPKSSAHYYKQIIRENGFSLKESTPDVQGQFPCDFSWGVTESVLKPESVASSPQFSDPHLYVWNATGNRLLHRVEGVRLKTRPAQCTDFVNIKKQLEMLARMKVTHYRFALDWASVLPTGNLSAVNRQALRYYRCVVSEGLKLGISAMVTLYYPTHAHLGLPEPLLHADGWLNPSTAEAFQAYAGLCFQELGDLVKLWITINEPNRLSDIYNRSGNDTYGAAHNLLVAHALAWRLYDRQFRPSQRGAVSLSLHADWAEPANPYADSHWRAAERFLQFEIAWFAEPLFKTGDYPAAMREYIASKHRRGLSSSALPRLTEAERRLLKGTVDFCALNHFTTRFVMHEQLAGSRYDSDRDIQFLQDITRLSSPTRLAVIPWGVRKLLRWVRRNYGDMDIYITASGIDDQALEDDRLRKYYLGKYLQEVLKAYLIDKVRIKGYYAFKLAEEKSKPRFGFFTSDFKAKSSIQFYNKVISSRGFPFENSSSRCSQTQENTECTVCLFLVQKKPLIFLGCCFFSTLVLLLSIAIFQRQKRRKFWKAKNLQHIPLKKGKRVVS
# assay protocol: cell-based
# Type: cell-based
# condition details: FIG. 8B, FGF21 and FGF19 C-terminal peptides
No end group written: not given here.

substance: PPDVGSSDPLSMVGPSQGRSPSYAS-NH2 [Peptide C25, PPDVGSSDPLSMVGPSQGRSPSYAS, reference compound]
study target: Klotho β (KLB) (Homo sapiens, UniProt Q86Z14)
measurement units: nM
IC50: 40
--
substance: PLETDSMDPFGLVTGLEAVRSPSFEK-NH2 (C-terminus assumed) [FGF19 WT, reference compound]
study target: Klotho β (KLB) (Homo sapiens, UniProt Q86Z14)
measurement units: nM
IC50: 50
--
substance: PLETDSMDPFGLVTGLEAVRSPSFEA-NH2 (C-terminus assumed) [FGF19 A25]
study target: Klotho β (KLB) (Homo sapiens, UniProt Q86Z14)
measurement units: nM
IC50: 0.5

* * *

# study target: Klotho β (KLB) (Homo sapiens)
# Construct: expressed in transfected cells; host or cells: HEK 293T (ATCC), pooled Zeocin-selected cells stably expressing hKLB from pcDNA3.1(+)
# Sequence (Q86Z14 1-1044): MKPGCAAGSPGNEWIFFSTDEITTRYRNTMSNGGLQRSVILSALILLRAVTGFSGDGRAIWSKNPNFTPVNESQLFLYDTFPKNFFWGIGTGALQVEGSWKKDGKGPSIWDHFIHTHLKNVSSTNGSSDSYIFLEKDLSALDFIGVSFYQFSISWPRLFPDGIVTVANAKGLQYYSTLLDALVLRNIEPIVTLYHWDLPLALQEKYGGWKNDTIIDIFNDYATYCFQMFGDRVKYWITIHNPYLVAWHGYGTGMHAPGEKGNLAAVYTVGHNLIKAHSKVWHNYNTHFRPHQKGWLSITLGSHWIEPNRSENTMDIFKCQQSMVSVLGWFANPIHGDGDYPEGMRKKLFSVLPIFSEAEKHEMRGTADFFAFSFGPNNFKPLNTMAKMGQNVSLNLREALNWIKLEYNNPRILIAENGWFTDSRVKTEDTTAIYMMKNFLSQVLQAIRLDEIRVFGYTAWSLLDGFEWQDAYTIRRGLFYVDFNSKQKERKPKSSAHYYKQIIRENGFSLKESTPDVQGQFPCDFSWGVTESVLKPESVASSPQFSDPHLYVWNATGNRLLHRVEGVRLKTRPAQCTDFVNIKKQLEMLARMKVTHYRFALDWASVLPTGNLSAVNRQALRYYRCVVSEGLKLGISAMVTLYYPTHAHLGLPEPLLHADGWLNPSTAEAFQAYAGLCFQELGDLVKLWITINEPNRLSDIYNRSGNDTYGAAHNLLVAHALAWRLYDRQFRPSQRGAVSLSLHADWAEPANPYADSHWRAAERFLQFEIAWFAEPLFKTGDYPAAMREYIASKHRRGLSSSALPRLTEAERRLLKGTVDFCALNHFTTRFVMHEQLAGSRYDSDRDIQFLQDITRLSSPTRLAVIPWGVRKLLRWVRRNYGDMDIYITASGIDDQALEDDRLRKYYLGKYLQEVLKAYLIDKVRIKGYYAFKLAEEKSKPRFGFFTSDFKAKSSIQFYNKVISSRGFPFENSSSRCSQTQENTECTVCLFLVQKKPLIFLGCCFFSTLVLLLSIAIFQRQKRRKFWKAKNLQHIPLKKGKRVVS
# assay protocol: cell-based
# Format: cell-based
# condition details: Table 5, FGF19/FGF21 chimeric peptides
No end group written: not given here.
The following substances are listed with their measured IC50 values.
property label: IC50 (nM)

substance: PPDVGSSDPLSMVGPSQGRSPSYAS-NH2 [Peptide C25, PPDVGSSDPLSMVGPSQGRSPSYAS, reference compound]
study target: Klotho β (KLB) (Homo sapiens)
property label: IC50
test result: 116
//
substance: PLETDSMDPFGLVTGLEAVRSPSFEA-NH2 (C-terminus assumed) [FGF19 A25]
study target: Klotho β (KLB) (Homo sapiens)
property label: IC50
test result: 19.1
//
substance: PPDVGSMDPFGLVTGLEAVRSPSYAA-NH2 (C-terminus assumed) [Peptide 0433]
study target: Klotho β (KLB) (Homo sapiens)
property label: IC50
test result: 10.7
//
substance: PLETDSSDPLSMVGPSQGRSPSFEA-NH2 (C-terminus assumed) [Peptide 0432]
study target: Klotho β (KLB) (Homo sapiens)
property label: IC50
test result: 120
